Where do these numbers come from? They come from the supplement of paper PMC10567573.

B1: STEAP1 (parent)
chain: LWKMKPRRNLEEDDYLHKDTGETS

Variants of: B1
Test: protein stability index of a GFP-peptide fusion (GPS, HEK-293T) (PSI 1-6); higher = more stable;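 also: lentivirally expressed fusions sorted by FACS into six bins by GFP to DsRed ratio, PSI derived from sequencing read proportions per bin multiplied by bin number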
Conditions: c terminus: a fixed tail appended
Label Satisfied when protein stability index is at or above 4; otherwise label Not satisfied.

mutation.code: R7N
classification: Satisfied
//
mutation.code: D13W
classification: Not satisfied
//
mutation.code: D19K
classification: Satisfied
//
mutation.code: L10H
classification: Satisfied
//
mutation.code: W2M
classification: Satisfied

As a next step, examine the variant that follows.
Is reported protein stability index greater than or equal to 4 here: E11Q
Satisfied
